- Target: CAMK4 (human)
- Assay details: radiometric filter-binding kinase assay, Kinase HotSpot
- Condition parameters: compound 0.5 µM; ATP 10 µM
Measurement label: residual activity (%)
Could you give me the number in %? Just the number is fine.

Consider the reported residual activity for these compounds:
| Smiles representation | residual activity / % |
| --- | --- |
| COc1ccc2c(c1)c(C1=C(c3c[nH]c4ccccc34)C(=O)NC1=O)cn2CCCN(C)C | 90.3 |
| Fc1ccc(-c2nc3n(c2-c2ccncc2)CCS3)cc1 | 99.8 |
| CN(C)c1ccc(/C=C2\C(=O)Nc3ccccc32)cc1 | 97.8 |
| COc1cc2ncnc(Nc3ccc(Oc4ccccc4)cc3)c2cc1OC | 97.8 |
| COc1cc2ncnc(Nc3ccc(OCc4ccccc4)cc3)c2cc1OC | 101 |

# query: residual activity | item "O=C1NC(=O)c2c1c1c3ccccc3[nH]c1n1cncc21" | system: CAMK4 (human)
89.8

# query: residual activity | item "COc1ccc(C(=O)Nc2sc3c(c2C(N)=O)CCCC3)cc1OC" | system: CAMK4 (human)
95.7

# query: residual activity | item "c1ccc2c(-c3ccncc3)c[nH]c2c1" | system: CAMK4 (human)
101

# query: residual activity | item "O=C1Nc2ccc(Br)cc2/C1=C\c1cc2c([nH]1)CCCC2" | system: CAMK4 (human)
97.5

# query: residual activity | item "CN(C)S(=O)(=O)c1ccc2c(c1)/C(=C/c1cc3c([nH]1)CCCC3)C(=O)N2" | system: CAMK4 (human)
96.6

----------
- Target: RPS6KA5 KD2 (human)
- Assay details: radiometric filter-binding kinase assay, Kinase HotSpot
- Condition parameters: compound 0.5 µM; ATP 10 µM
Reported values of residual activity for individual entries
Could you give me the number in %? Just the number is fine.

| Smiles representation | Unit info | Number |
| --- | --- | --- |
| O=C1Nc2ccc(Br)cc2/C1=C\c1cc2c([nH]1)CCCC2 | % | 90.3 |
| O=C1c2ccccc2-c2nc3nnnn3nc21 | % | 68.7 |
| COc1ccc(S(=O)(=O)N(CCO)c2ccccc2CN(C)C/C=C/c2ccc(Cl)cc2)cc1 | % | 103 |
| COc1ccc(C(=O)Nc2sc3c(c2C(N)=O)CCCC3)cc1OC | % | 105 |
| CC(C)(C)c1cc(C=C(C#N)C#N)cc(Br)c1O | % | 108 |
| CCCCc1c(-c2ccc(OC)cc2)[nH]c2nccnc12 | % | 104 |
| Cc1nc(-c2ccccc2)c(-c2ccncc2)o1 | % | 107 |
| Cn1c2ccccc2c2c3c(c4c5ccccc5n(CCC#N)c4c21)CNC3=O | % | 23.7 |

Please turn your attention to the following entry.
Consider the compound shown here: "N#C/C(=C\c1ccc(O)c(O)c1)C(=O)NCc1ccccc1" What is its recorded residual activity?
102

----------
- Target: CLK3 (human)
- Assay details: radiometric filter-binding kinase assay, Kinase HotSpot
- Condition parameters: compound 0.5 µM; ATP 10 µM
Reported values of residual activity for individual entries
Could you give me the number in %? Just the number is fine.

Consider the reported residual activity for these compounds:
| Smiles representation | Measurement label | Unit info | Number |
| --- | --- | --- | --- |
| CN(C)c1ccc(/C=C2\C(=O)Nc3ccccc32)cc1 | residual activity | % | 89.4 |
| CN(C)S(=O)(=O)c1ccc2c(c1)/C(=C/c1cc3c([nH]1)CCCC3)C(=O)N2 | residual activity | % | 92.9 |
| O=C(c1cc2cc(O)ccc2[nH]1)c1cc2cc(O)ccc2[nH]1 | residual activity | % | 24.8 |
| COc1cc(Nc2c(C#N)cnc3cc(OCCCN4CCN(C)CC4)c(OC)cc23)c(Cl)cc1Cl | residual activity | % | 94.9 |
| CO[C@@H]1[C@H](N(C)C(=O)c2ccccc2)C[C@H]2O[C@]1(C)n1c3ccccc3c3c4c(c5c6ccccc6n2c5c31)C(=O)NC4 | residual activity | % | 89.6 |

# query: residual activity | item "c1ccc2c(-c3ccncc3)c[nH]c2c1" | system: CLK3 (human)
92.6

# query: residual activity | item "Cc1cncc2cccc(S(=O)(=O)N3CCCN(C(=O)CN)C[C@H]3C)c12" | system: CLK3 (human)
95.9

# query: residual activity | item "Cn1c2ccccc2c2c3c(c4c5ccccc5n(CCC#N)c4c21)CNC3=O" | system: CLK3 (human)
23.1

# query: residual activity | item "COc1ccc2c(c1)c(C1=C(c3c[nH]c4ccccc34)C(=O)NC1=O)cn2CCCN(C)C" | system: CLK3 (human)
43.6

# query: residual activity | item "NC(=O)c1cccc(-c2cc(Nc3ccc(OC(F)(F)F)cc3)ncn2)c1" | system: CLK3 (human)
104

# query: residual activity | item "Cc1cccc(-c2nc(C(C)(C)C)[nH]c2-c2ccc3c(c2)OCO3)n1" | system: CLK3 (human)
104

# query: residual activity | item "Ic1cccc(CSc2nnc(-c3ccncc3)o2)c1" | system: CLK3 (human)
76.3

# query: residual activity | item "COc1cc2ncnc(Nc3ccc(Oc4ccccc4)cc3)c2cc1OC" | system: CLK3 (human)
101

----------
- Target: STK33 (human)
- Assay details: radiometric filter-binding kinase assay, Kinase HotSpot
- Condition parameters: compound 0.5 µM; ATP 10 µM
Reported values of residual activity for individual entries
Could you give me the number in %? Just the number is fine.

| Smiles representation | Number |
| --- | --- |
| COc1ccc2c(c1)c(C1=C(c3c[nH]c4ccccc34)C(=O)NC1=O)cn2CCCN(C)C | 56.2 |

Consider the compound shown here: "COc1ccc(Cl)cc1NC(=O)Nc1cc(C)nc2ccccc12" What is its recorded residual activity?
103

Consider the compound shown here: "Cc1cncc2cccc(S(=O)(=O)N3CCCN(C(=O)CN)C[C@H]3C)c12" What is its recorded residual activity?
100

Consider the compound shown here: "COc1ccc2c(c1)/C(=C/c1cnc[nH]1)C(O)=N2" What is its recorded residual activity?
74.7

Consider the compound shown here: "Cc1cccc(-c2nc(C(C)(C)C)[nH]c2-c2ccc3c(c2)OCO3)n1" What is its recorded residual activity?
89

----------
- Target: CSNK1G3 (human) (UniProt Q9Y6M4)
- Sequence (Q9Y6M4 whole entry, looked up): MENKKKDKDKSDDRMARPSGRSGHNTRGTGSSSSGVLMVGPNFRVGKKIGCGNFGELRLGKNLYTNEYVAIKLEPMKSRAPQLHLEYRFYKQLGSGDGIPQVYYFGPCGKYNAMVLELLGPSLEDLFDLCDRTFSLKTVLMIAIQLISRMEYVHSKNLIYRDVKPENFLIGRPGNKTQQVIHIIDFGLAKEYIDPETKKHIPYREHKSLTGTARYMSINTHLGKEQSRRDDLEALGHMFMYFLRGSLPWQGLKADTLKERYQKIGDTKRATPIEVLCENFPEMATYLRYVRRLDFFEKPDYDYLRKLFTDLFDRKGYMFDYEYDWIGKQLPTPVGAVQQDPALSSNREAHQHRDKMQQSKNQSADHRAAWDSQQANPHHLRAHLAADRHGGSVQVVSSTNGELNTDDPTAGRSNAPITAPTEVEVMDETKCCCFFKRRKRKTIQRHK
- Assay details: radiometric filter-binding kinase assay, Kinase HotSpot
- Condition parameters: compound 0.5 µM; ATP 10 µM
Measurement label: residual activity (%)
Could you give me the number in %? Just the number is fine.

Consider the reported residual activity for these compounds:
| Smiles representation | Target | residual activity [%] |
| --- | --- | --- |
| N#C/C(=C\c1ccc(O)c(O)c1)C(=O)NCc1ccccc1 | CSNK1G3 (human) (UniProt Q9Y6M4) | 104 |
| CC(C)(C)c1cc(C=C(C#N)C#N)cc(Br)c1O | CSNK1G3 (human) (UniProt Q9Y6M4) | 85.8 |
| COc1cc2ncnc(Nc3ccc(Oc4ccccc4)cc3)c2cc1OC | CSNK1G3 (human) (UniProt Q9Y6M4) | 99.4 |
| CN(C)S(=O)(=O)c1ccc2c(c1)/C(=C/c1cc3c([nH]1)CCCC3)C(=O)N2 | CSNK1G3 (human) (UniProt Q9Y6M4) | 101 |
| NC(=O)c1cccc(-c2cc(Nc3ccc(OC(F)(F)F)cc3)ncn2)c1 | CSNK1G3 (human) (UniProt Q9Y6M4) | 93.4 |

# query: residual activity | item "COc1cc2ncnc(Nc3ccc(OCc4ccccc4)cc3)c2cc1OC" | system: CSNK1G3 (human) (UniProt Q9Y6M4)
92.9

# query: residual activity | item "CCCCc1c(-c2ccc(OC)cc2)[nH]c2nccnc12" | system: CSNK1G3 (human) (UniProt Q9Y6M4)
89.2

# query: residual activity | item "Cc1nc(-c2ccccc2)c(-c2ccncc2)o1" | system: CSNK1G3 (human) (UniProt Q9Y6M4)
104

# query: residual activity | item "Cc1cccc(-c2nc(C(C)(C)C)[nH]c2-c2ccc3c(c2)OCO3)n1" | system: CSNK1G3 (human) (UniProt Q9Y6M4)
102

# query: residual activity | item "O=C(c1cc2cc(O)ccc2[nH]1)c1cc2cc(O)ccc2[nH]1" | system: CSNK1G3 (human) (UniProt Q9Y6M4)
77.2

# query: residual activity | item "O=C1Nc2ccc(Br)cc2/C1=C\c1cc2c([nH]1)CCCC2" | system: CSNK1G3 (human) (UniProt Q9Y6M4)
103

----------
- Target: MAP3K5 (human)
- Assay details: radiometric filter-binding kinase assay, Kinase HotSpot
- Condition parameters: compound 0.5 µM; ATP 10 µM
Measurement label: residual activity (%)
Could you give me the number in %? Just the number is fine.

Consider the reported residual activity for these compounds:
| Smiles representation | Measurement label | Number |
| --- | --- | --- |
| COc1ccc(C(=O)Nc2sc3c(c2C(N)=O)CCCC3)cc1OC | residual activity | 94.8 |
| O=C1NC(=O)c2c1c1c3ccccc3[nH]c1n1cncc21 | residual activity | 97.8 |
| CN(C)CCCn1cc(C2=C(c3c[nH]c4ccccc34)C(=O)NC2=O)c2ccccc21 | residual activity | 90.2 |

Please turn your attention to the following entry.
Consider the compound shown here: "O=C(c1cc2cc(O)ccc2[nH]1)c1cc2cc(O)ccc2[nH]1" What is its recorded residual activity?
89.6
